experiment: chemical genetic growth profiling, strain panel (AID 1159580);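 note: tested at 20 µM; growth read once vehicle control cultures reached saturation at 30 °C; lower values mean less growth of the strain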; details: S. cerevisiae deletion strains, growth OD, locus YNL322C, strain KRE1
Among all 5,500 compounds or so, about 2,000 (36%) were called active. Not shown: some 18% with an inconclusive outcome. Cut-off read from the data, not from the text of the source: active = normalized growth mostly below about 0.91 (no sharp cut-off); inconclusive = no clear call, values can overlap the other calls; inactive = mostly above about 0.92. The list shows a part of the results.
Use one of these outcomes when replying: active, inactive

Inquiry: Fill in: this test's call for C=C1c2c(Cl)ccc(O)c2C(O)=C2C(=O)[C@]3(O)C(O)=C(C(N)=O)C(=O)[C@@H](N(C)C)[C@@H]3[C@@H](O)[C@H]12 is ___
Reply text: inactive

Inquiry: Fill in: this test's call for CN=C(NC#N)Nc1ccc(C2=NNC(=O)CC2C)cc1 (stereo not given) is ___
Reply text: inactive

Inquiry: Fill in: this test's call for CC(=O)OCC(=O)[C@@]1(O)[C@H](C)CC2C3CCC4=CC(=O)C=C[C@]4(C)[C@@]3(F)[C@@H](O)C[C@@]21C (stereo not given in full) is ___
Reply text: inactive

Inquiry: Fill in: this test's call for C=Cc1c(SC)sc(C(=O)O)c1C is ___
Reply text: active

Inquiry: Fill in: this test's call for CC1(C)CCC=[N+]1[O-] is ___
Reply text: inactive

Inquiry: Fill in: this test's call for Cc1[nH]c2ccc(O)cc2c1CCN is ___
Reply text: inactive

Inquiry: Fill in: this test's call for CCCc1c(OCCCCc2nn[nH]n2)ccc(C(C)=O)c1O is ___
Reply text: inactive

Inquiry: Fill in: this test's call for Cc1ccc(Sc2ccc([N+](=O)[O-])cc2/C=C2\SC(=S)NC2=O)cc1 is ___
Reply text: inactive

Inquiry: Fill in: this test's call for O=C(O)C1C2CCC1C(O)C2 (stereo not given) is ___
Reply text: inactive

Inquiry: Fill in: this test's call for NC(Cn1ccc(=O)c(O)c1)C(=O)O (stereo not given) is ___
Reply text: inactive

Inquiry: Fill in: this test's call for C=C1c2cccc(O)c2C(O)=C2C(=O)[C@]3(O)C(O)=C(C(N)=O)C(=O)[C@@H](N(C)C)[C@@H]3[C@@H](O)[C@H]12 is ___
Reply text: inactive

Inquiry: Fill in: this test's call for CCOC(=O)CSc1nc2cc(C(F)(F)F)cnc2n1C is ___
Reply text: inactive

Inquiry: Fill in: this test's call for COc1cc(C/C=C/c2ccccc2)c(OC)cc1O is ___
Reply text: inactive

Inquiry: Fill in: this test's call for CCOC(=O)c1ccc(NC(N)=S)cc1 is ___
Reply text: inactive

Inquiry: Fill in: this test's call for CC(CCC(=O)O)[C@H]1CCC2C3CC[C@@H]4CC(=O)CC[C@]4(C)C3C=C[C@@]21C (stereo not given in full) is ___
Reply text: inactive

Inquiry: Fill in: this test's call for Cn1ncc(C(=O)O/N=C(/N)c2cc(C(F)(F)F)cc(C(F)(F)F)c2)c1-n1cccc1 is ___
Reply text: inactive

Inquiry: Fill in: this test's call for C[C@H]1c2cccc(O)c2C(O)=C2C(=O)[C@]3(O)C(O)=C(C(N)=O)C(=O)[C@@H](N(C)C)[C@@H]3[C@@H](O)[C@@H]21 is ___
Reply text: inactive

Inquiry: Fill in: this test's call for NS(=O)(=O)c1cc2c(cc1Cl)NC(CSCc1ccccc1)=NS2(=O)=O is ___
Reply text: inactive

Inquiry: Fill in: this test's call for CN(C)c1ccc(O)c2c1C[C@H]1C[C@H]3[C@H](N(C)C)C(=O)C(C(N)=O)=C(O)[C@@]3(O)C(=O)C1=C2O is ___
Reply text: inactive

Inquiry: Fill in: this test's call for CN(C)C1C(=O)C(C(N)=O)=C(O)C2(O)C(=O)C3=C(O)c4c(O)ccc(Cl)c4C(O)C3CC12 (stereo not given) is ___
Reply text: inactive
